# PROTOCOL DETAILS: Aqueous solubility of Form L eplerenone
# Format: physicochemical
# MEASUREMENT SETUP: phosphate buffer, pH 7, aqueous, pH 7 (100 mM phosphate buffer), 25 °C
QUANTITY KIND: solubility
Answer shape: numeric part, then the unit.

// query # return recorded solubility for input COC(=O)[C@@H]1CC2=CC(=O)CC[C@]2(C)[C@@]23O[C@@H]2C[C@@]2(C)C(CC[C@@]24CCC(=O)O4)C13 (stereo partly shown) [Form L eplerenone]
// result 290 µg/mL

---

# PROTOCOL DETAILS: Aqueous solubility of Form L eplerenone
# Type: physicochemical
# MEASUREMENT SETUP: phosphate buffer, pH 7, aqueous, pH 7 (100 mM phosphate buffer), 40 °C
QUANTITY KIND: solubility

// query # return recorded solubility for input COC(=O)[C@@H]1CC2=CC(=O)CC[C@]2(C)[C@@]23O[C@@H]2C[C@@]2(C)C(CC[C@@]24CCC(=O)O4)C13 (stereo partly shown) [Form L eplerenone]
// result 390 µg/mL
